experiment: chemical genetic growth profiling, strain panel (AID 1159580);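 further: tested at 20 µM; growth read once vehicle control cultures reached saturation at 30 °C; 1 = growth at the plate median or of vehicle wells; lower values mean less growth of the strain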; settings: S. cerevisiae deletion strains, growth OD, locus YKR026C, strain gcn3, hits give low values
Out of some 5,500 compounds screened, about 2,000 (36%) were called active. Inconclusive results (about 18%) are left out. The list shows a part of the results.
Property Name: normalized growth

Prompt: Identify normalized growth associated with the compound COC(=O)C(N)CS (centres undefined)
Completion: 0.985 (inactive)

Prompt: Quote normalized growth reported for `Cc1ccc(-c2nc3ccc(C)cn3c2CC(=O)N(C)C)cc1` please.
Completion: 1.02 (inactive)

Prompt: Look up and state reported normalized growth for `COc1cc(C(=O)N2CCOCC2)cc(OC)c1OC`
Completion: 0.975 (inactive)

Prompt: Tell me its normalized growth given `CC1(C)[C@@H]2CC[C@@]1(C)C(=O)C2` as the entry.
Completion: 1.01 (inactive)

Prompt: State, in one line, measured normalized growth of COC1=CC(C)[C@@H]2C[C@H]3OC(=O)C[C@H]4C(C)=C(OC)C(=O)C([C@@]34C)[C@@]2(C)C1=O (some centres undefined)
Completion: 0.96 (inactive)

Prompt: Answer with reported normalized growth of `CC1(C)S[C@@H]2[C@H](NC(=O)[C@@H](N)c3ccc(O)cc3)C(=O)N2[C@H]1C(=O)O`
Completion: 1.07 (inactive)

Prompt: Please report the measured normalized growth for `CC(C)C[C@@H](NC(=O)OCC1c2ccccc2-c2ccccc21)C(=O)O`
Completion: 1 (inactive)

Prompt: Provide measured normalized growth value, entry: `C[N+]1(C)C[C@H](O)[C@H](C(=O)[O-])C1`
Completion: 1.01 (inactive)

Prompt: Supply normalized growth value. Item: O=c1c2cc(O)c(O)cc2oc2cc(O)c(C3O[C@H](CO)[C@H](O)[C@@H](O)[C@H]3O)c(O)c12 (some centres undefined)
Completion: 1.02 (inactive)

====

I'd appreciate it if you could supply normalized growth values for the items below.
experiment: chemical genetic growth profiling, strain panel (AID 1159580);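 further: tested at 20 µM; growth read once vehicle control cultures reached saturation at 30 °C; 1 = growth at the plate median or of vehicle wells; lower values mean less growth of the strain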; conditions: S. cerevisiae deletion strains, growth OD, locus YNR052C, strain pop2, hits give low values
The campaign covered roughly 5,500 compounds. About 2,000 (36%) were called active. Inconclusive results (about 18%) are left out. This is one part of the list.
The reply should be a number, written without any unit.

Prompt: Identify measured normalized growth associated with `CC1(C)S[C@@H]2[C@H](NC(=O)[C@@H](N)c3ccc(O)cc3)C(=O)N2[C@H]1C(=O)O`
Completion: 0.999

Prompt: Tell me normalized growth reported for NS(=O)(=O)c1cc2c(cc1C(F)(F)F)NC(Cc1ccccc1)NS2(=O)=O (stereo not drawn)
Completion: 1.01

Prompt: Give a short answer stating reported normalized growth for CCC(=O)OCC(=O)C1(OC(=O)CC)C(C)CC2C3CCC4=CC(=O)C=CC4(C)C3(Cl)C(O)CC21C (stereo not drawn) .
Completion: 0.994

Prompt: Identify normalized growth associated with the molecule `COc1ccc(-c2cc(=O)c3c(O)cc(O)cc3o2)cc1O`
Completion: 0.994

Prompt: Give normalized growth for CCCCC(=O)O[C@]1(C(=O)CO)[C@@H](C)CC2C3CCC4=CC(=O)C=C[C@]4(C)[C@@]3(F)C(O)C[C@@]21C (stereo partly drawn)
Completion: 0.979

Prompt: Annotate the molecule CC1(C)O[C@@H]2CC3C4C[C@H](F)C5=CC(=O)CC[C@]5(C)C4[C@@H](O)C[C@]3(C)[C@]2(C(=O)CO)O1 (stereo partly drawn) with its measured normalized growth.
Completion: 0.999

Prompt: Look up and state reported normalized growth for CC(=O)O[C@@H]1CC2C(C)(C)CCC[C@]2(C)C2CC[C@]3(C)C(=CC(=O)O[C@H]3c3ccoc3)[C@@]21C (stereo partly drawn)
Completion: 0.993

Prompt: Give me measured normalized growth, please, for this molecule: `CCn1nc(C(=O)O)c(=O)c2cc3c(cc21)OCO3`
Completion: 1.01

Prompt: Please give measured normalized growth of the following entry: `COC(=O)[C@H]1[C@H]2C[C@H]3c4[nH]c5cc(OC)ccc5c4CCN3C[C@H]2C[C@@H](OC(=O)c2cc(OC)c(OC)c(OC)c2)[C@@H]1OC`
Completion: 0.995

Prompt: State its normalized growth for this molecule: `COc1cc(C)c2c(=O)c3c(O)cc(OC)cc3oc2c1`
Completion: 0.978

Prompt: Provide only the value of recorded normalized growth for COC1CC(O[C@H]2CC[C@]3(C=O)C4CC[C@]5(C)C(C6=CC(=O)OC6)CC[C@]5(O)C4CC[C@]3(O)C2)OC(C)C1O (stereo partly drawn)
Completion: 0.988

Prompt: Input CCC(=O)O[C@]1(C(=O)CCl)[C@@H](C)CC2C3CCC4=CC(=O)C=C[C@]4(C)[C@@]3(F)[C@@H](O)C[C@@]21C (stereo partly drawn) , output reported normalized growth.
Completion: 0.988

Prompt: Identify the reported normalized growth for the following entry. NC[C@@H]1O[C@H](O[C@@H]2[C@@H](CO)OC(O[C@@H]3[C@@H](O)[C@H](N)C[C@H](N)[C@H]3O[C@H]3O[C@H](CO)[C@@H](O)[C@H](O)[C@H]3N)[C@@H]2O)[C@H](N)[C@@H](O)[C@@H]1O (stereo partly drawn)
Completion: 0.998

Prompt: Give a short answer stating reported normalized growth for `COc1c(O)cc2c(c1O)[C@H]1O[C@H](CO)[C@@H](O)[C@H](O)[C@@H]1OC2=O` .
Completion: 0.998

Prompt: Specify normalized growth for `COc1cc(O)c2c(=O)cc(-c3ccc(OC)c(-c4c(O)cc(O)c5c(=O)cc(-c6ccc(O)cc6)oc45)c3)oc2c1` and stop.
Completion: 0.993

Prompt: Fill in normalized growth for record `COc1cccc2c1CCC1=CC(=O)CC[C@@]12C`
Completion: 0.996

Prompt: Give normalized growth for COC(=O)C[C@H]1C(C)(C)[C@@H](O)[C@@H]2CC3=C4CC(O)O[C@@H](c5ccoc5)[C@]4(C)CCC3[C@@]1(C)C2=O (stereo partly drawn)
Completion: 0.975

Prompt: Please list normalized growth recorded for the molecule `COc1ccc(-c2cc(=O)c3c(O)cc(O)c(-c4cc(-c5cc(=O)c6c(O)cc(O)cc6o5)ccc4OC)c3o2)cc1`
Completion: 1.01

Prompt: Retrieve normalized growth measured for CC1(C)C(O)CC(=O)C2(C)C1CC(O)C1(C)C2CCC2(C)C(c3ccoc3)OC(=O)C3OC321 (stereo not drawn) and print it.
Completion: 1.02

Prompt: Name the recorded normalized growth of the item CSCCC(N)C(=O)NC(CC(C)C)C(=O)NC(Cc1ccccc1)C(=O)O (stereo not drawn) in your answer.
Completion: 0.996

Prompt: Answer with reported normalized growth of `O=C(CCCN1CCC2(CC1)C(=O)NCN2c1ccccc1)c1ccc(F)cc1`
Completion: 0.999

Prompt: Give normalized growth for `CC1(C)[C@@H]2CC[C@@]1(C)C(=O)C2`
Completion: 0.999

Prompt: Answer with reported normalized growth of `C[C@]12CCC(=O)C=C1CCc1ccc(O)cc12`
Completion: 0.982

Prompt: Annotate the molecule `CO[C@@H]1[C@@H](OC(N)=O)[C@@H](O)[C@H](Oc2ccc3c(O)c(NC(=O)c4ccc(O)c(CC=C(C)C)c4)c(=O)oc3c2C)OC1(C)C` with its measured normalized growth.
Completion: 0.978

Prompt: For NC[C@H]1O[C@H](OC2[C@@H](N)C[C@@H](N)[C@H](O[C@H]3O[C@H](CO)[C@@H](O)[C@H](N)[C@H]3O)[C@H]2O)[C@H](O)[C@@H](O)[C@@H]1O (stereo partly drawn) , write its normalized growth.
Completion: 0.973

Prompt: Annotate the molecule C[C@@H]1CC[C@@]23CCC4(C)[C@@](C=CC5[C@@]6(C)CCC(=O)C(C)(C)C6CC[C@]54C)(OC2=O)C3[C@H]1C (stereo partly drawn) with its measured normalized growth.
Completion: 1.02

Prompt: Tell us which normalized growth value is on record for CC(=O)OCC(=O)[C@@]1(O)CCC2C3C[C@H](C)C4=CC(=O)C=CC4(C)C3[C@@H](O)CC21C (stereo partly drawn)
Completion: 1

Prompt: Give normalized growth for `NC(=O)c1cc([N+](=O)[O-])cc([N+](=O)[O-])c1`
Completion: 0.985
